The reported numbers originate from ChEMBL document CHEMBL4393657.

test system: Candida tropicalis; assay: Antifungal activity against Candida tropicalis assessed as reduction in fungal cell growth incubated for 24 hrs by broth microdilution method; format: functional

{"item.smiles": "OC(Cn1cncn1)(Cn1cncn1)c1ccc(F)cc1F", "MIC": "1 to 4 mg/L"}
{"item.smiles": "Fc1cc2nc(SCc3ccc(-c4ccccc4-c4nnnn4C(c4ccccc4)(c4ccccc4)c4ccccc4)cc3)[nH]c2cc1-n1ccnc1", "MIC": "8 to 16 mg/L"}
{"item.smiles": "Fc1cc2nc(SCc3ccc(-c4ccccc4-c4nnnn4C(c4ccccc4)(c4ccccc4)c4ccccc4)cc3)[nH]c2cc1Oc1ccc(Cl)cc1", "MIC": "16 mg/L"}
{"item.smiles": "Fc1cc2[nH]c(SCc3ccc(-c4ccccc4-c4nnnn4C(c4ccccc4)(c4ccccc4)c4ccccc4)cc3)nc2cc1-n1cncn1", "MIC": "4 to 8 mg/L"}

====

Listing of entries alongside the reported MIC.
test system: Candida albicans; test: Antifungal activity against Candida albicans assessed as reduction in fungal cell growth incubated for 48 hrs by broth microdilution method; format: functional

{"molecule": "Cc1ccc(C2c3ccc4ccccc4c3Oc3[nH]c(=S)n4nnnc4c32)cc1 (stereo not drawn)", "MIC": "50 to 400 µg/mL"}
{"molecule": "C[C@H](n1nnc(CCN2CCN(c3ccccc3)CC2)n1)[C@](O)(Cn1cncn1)c1ccc(F)cc1F", "MIC": "0.25 to 16 µg/mL"}
{"molecule": "CC(n1nnc(CCN2CCN(c3cccc(Cl)c3)CC2)n1)C(O)(Cn1cncn1)c1ccc(F)cc1F (stereo not drawn)", "MIC": "1 to 16 µg/mL"}
{"molecule": "CC(n1nnnc1CCN1CCN(c2ccccn2)CC1)C(O)(Cn1cncn1)c1ccc(F)cc1F (stereo not drawn)", "MIC": "0.5 to 16 µg/mL"}
{"molecule": "CC(n1nnc(CCN2CCN(c3ccc([N+](=O)[O-])cc3)CC2)n1)C(O)(Cn1cncn1)c1ccc(F)cc1F (stereo not drawn)", "MIC": "1 to 16 µg/mL"}
{"molecule": "OC(Cn1cncn1)(Cn1nnc(CCN2CCN(C(c3ccccc3)c3ccccc3)CC2)n1)c1ccc(F)cc1F (stereo not drawn)", "MIC": "1 to 16 µg/mL"}
{"molecule": "OC(Cn1cncn1)(Cn1nnnc1CCN1CCN(C(c2ccccc2)c2ccccc2)CC1)c1ccc(F)cc1F (stereo not drawn)", "MIC": "0.5 to 16 µg/mL"}
{"molecule": "CCCCOc1ccccc1N1CCN(CCc2nnn(C(C)C(O)(Cn3cncn3)c3ccc(F)cc3F)n2)CC1 (stereo not drawn)", "MIC": "1 to 16 µg/mL"}

====

Listing of entries alongside the reported MIC.
system: Aspergillus niger; assay: Antifungal activity against Aspergillus niger assessed as reduction in fungal cell growth incubated for 72 hrs by broth microdilution method; format: functional
reported.metric: MIC

{"compound": "COc1ccc(N2CCN(CCc3nnn(C(C)C(O)(Cn4cncn4)c4ccc(F)cc4F)n3)CC2)cc1 (configuration not stated)", "target.system": "Aspergillus niger", "result": "1 to 16 µg/mL"}
{"compound": "C[C@H](n1nnnc1CCN1CCN(c2ccccn2)CC1)[C@](O)(Cn1cncn1)c1ccc(F)cc1F", "target.system": "Aspergillus niger", "result": "0.12 to 16 µg/mL"}
{"compound": "C[C@H](n1nnnc1CCN1CCN(c2c(Cl)cccc2Cl)CC1)[C@](O)(Cn1cncn1)c1ccc(F)cc1F", "target.system": "Aspergillus niger", "result": "0.12 to 16 µg/mL"}
{"compound": "C[C@H](n1nnc(CCN2CCN(c3cccc(Cl)c3)CC2)n1)[C@](O)(Cn1cncn1)c1ccc(F)cc1F", "target.system": "Aspergillus niger", "result": "0.25 to 16 µg/mL"}
{"compound": "OC(Cn1cncn1)(Cn1nnc(CCN2CCN(c3ccccc3Cl)CC2)n1)c1ccc(F)cc1F (configuration not stated)", "target.system": "Aspergillus niger", "result": "1 to 16 µg/mL"}
{"compound": "OC(Cn1cncn1)(Cn1cncn1)c1ccc(F)cc1F [FLUCONAZOLE]", "target.system": "Aspergillus niger", "result": "2 to 8 µg/mL"}
{"compound": "COc1ccccc1N1CCN(CCc2nnnn2CC(O)(Cn2cncn2)c2ccc(F)cc2F)CC1 (configuration not stated)", "target.system": "Aspergillus niger", "result": "0.5 to 16 µg/mL"}
{"compound": "C[C@H](n1nnnc1CCN1CCN(c2ccc(F)cc2)CC1)[C@](O)(Cn1cncn1)c1ccc(F)cc1F", "target.system": "Aspergillus niger", "result": "0.12 to 16 µg/mL"}
{"compound": "COc1ccccc1N1CCN(CCc2nnn([C@@H](C)[C@](O)(Cn3cncn3)c3ccc(F)cc3F)n2)CC1", "target.system": "Aspergillus niger", "result": "0.25 to 16 µg/mL"}
{"compound": "OC(Cn1cncn1)(Cn1nnnc1CCN1CCN(c2ccc(Cc3ccccc3)cc2)CC1)c1ccc(F)cc1F (configuration not stated)", "target.system": "Aspergillus niger", "result": "0.5 to 16 µg/mL"}
{"compound": "C[C@H](n1nnnc1CCN1CCN(c2cccc(C(F)(F)F)c2)CC1)[C@](O)(Cn1cncn1)c1ccc(F)cc1F", "target.system": "Aspergillus niger", "result": "0.12 to 1 µg/mL"}
{"compound": "OC(Cn1cncn1)(Cn1nnc(CCN2CCN(c3cccc(Cl)c3)CC2)n1)c1ccc(F)cc1F (configuration not stated)", "target.system": "Aspergillus niger", "result": "1 to 16 µg/mL"}
{"compound": "CC(n1nnnc1CCN1CCN(c2ccc(F)cc2)CC1)C(O)(Cn1cncn1)c1ccc(F)cc1F (configuration not stated)", "target.system": "Aspergillus niger", "result": "0.5 to 16 µg/mL"}
{"compound": "C[C@H](n1nnc(CCN2CCN(c3cccc(C(F)(F)F)c3)CC2)n1)[C@](O)(Cn1cncn1)c1ccc(F)cc1F", "target.system": "Aspergillus niger", "result": "0.25 to 16 µg/mL"}
{"compound": "C[C@H](n1nnnc1CCN1CCN(c2ccccc2)CC1)[C@](O)(Cn1cncn1)c1ccc(F)cc1F", "target.system": "Aspergillus niger", "result": "0.12 to 16 µg/mL"}
{"compound": "CC(n1nnc(CCN2CCN(c3c(Cl)cccc3Cl)CC2)n1)C(O)(Cn1cncn1)c1ccc(F)cc1F (configuration not stated)", "target.system": "Aspergillus niger", "result": "1 to 16 µg/mL"}
{"compound": "C[C@H](n1nnnc1CCN1CCN(c2cccc(Cl)c2)CC1)[C@](O)(Cn1cncn1)c1ccc(F)cc1F", "target.system": "Aspergillus niger", "result": "0.12 to 16 µg/mL"}
